- ASSAYED_SYSTEM: LgTrip 3546 (with His tag; SEQ ID NO: 51)
- Sequence (chain, as listed by the source): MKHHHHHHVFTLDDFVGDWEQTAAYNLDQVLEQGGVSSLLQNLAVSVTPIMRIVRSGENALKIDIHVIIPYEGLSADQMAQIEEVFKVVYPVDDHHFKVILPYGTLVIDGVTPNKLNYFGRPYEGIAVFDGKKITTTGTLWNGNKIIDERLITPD
- CONDITION_SET: modification not given
OUTCOME_MEASURE: Kd (nM)
Answer with a number only, understood to be in nM.

The value of Kd measured for the binder SSKRGSMLFRVTIWSV [428] turned out to be 40
